method description: NCI Yeast Anticancer Drug Screen. Data for the cln2 rad14 strain (AID 165);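 further: 0% = growth equal to vehicle treated cultures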
experimental parameters: S. cerevisiae cln2 rad14 strain, at 50.0 µM (retest, dose inferred, filed as 5.0), stronger effect = higher value
This is part of a sample that, as a whole, favours compounds with a hit. Of some 79,000 tested, about 15% had one in any assay. Calls of active or inactive are those of the source. No stated cut-off is given here; in the data, active means growth inhibition above about 70%; inactive means the rest.
measure name: growth inhibition

Use these answered entries as a reference point.
1. CC[C@@]1(O)C[C@H](OC2CC(N)C(O)C(C)O2)c2c(O)c3c(c(O)c2[C@H]1C(=O)OC)C(=O)c1cccc(O)c1C3=O (some centres undefined); 99% (active)
2. C[CH2][Sn]1([CH2]C)[O]C2C(O)OC(CO)C(O)C2[O]1 (centres undefined); 37% (inactive)
3. O=c1c2ccccc2[se]n1-c1cccnc1; 40% (inactive)

Here's the next entry for you.
Prompt: Given the compound C/C1=C\[C@@H](O)C(=O)/C=C/C=C\c2csc(n2)[C@@H](C)NC(=O)C[C@@]2(CC1)S(=O)SC(=O)[C@]2(C)O (some centres undefined) , what is its reported growth inhibition?
Response: 98% (active)
